target: Beta-3 adrenergic receptor (Homo sapiens, UniProt P13945); test: Agonist activity at human beta3 adrenergic receptor relative to control; type: functional
Sequence (P13945 whole entry, looked up): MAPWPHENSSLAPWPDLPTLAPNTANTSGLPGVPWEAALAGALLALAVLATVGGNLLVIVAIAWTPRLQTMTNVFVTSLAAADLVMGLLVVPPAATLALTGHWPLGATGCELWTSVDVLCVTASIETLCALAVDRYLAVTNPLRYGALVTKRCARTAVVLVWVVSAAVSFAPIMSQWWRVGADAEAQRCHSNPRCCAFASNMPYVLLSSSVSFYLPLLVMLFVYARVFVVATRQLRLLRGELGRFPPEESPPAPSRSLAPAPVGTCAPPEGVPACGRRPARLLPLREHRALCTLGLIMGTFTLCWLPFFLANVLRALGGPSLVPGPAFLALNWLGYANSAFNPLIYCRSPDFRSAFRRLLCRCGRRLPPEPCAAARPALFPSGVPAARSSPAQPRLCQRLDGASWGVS
Collected Activity values appear next to each entry.

| compound | Activity [%] |
| --- | --- |
| O=S(=O)(Nc1ccc(C[C@H]2CC[C@H]([C@H](O)c3ccccc3)N2)cc1)c1ccc(-c2nc(-c3ccc(C(F)(F)F)cc3)cs2)cc1 | 76 |
| O=S(=O)(Nc1ccc(CC2CC[C@@H]([C@@H](O)c3ccccc3)N2)cc1)c1ccc(-c2nc(-c3ccc(C(F)(F)F)cc3)cs2)cc1 (mixture of isomers) | 89 |
| O=S(=O)(Nc1ccc(C[C@@H]2CC[C@H]([C@H](O)c3ccccc3)N2)cc1)c1ccc(-c2nc(-c3ccc(C(F)(F)F)cc3)cs2)cc1 | 95 |
| O=S(=O)(Nc1ccc(CC2CC[C@H]([C@H](O)c3ccccc3)N2)cc1)c1ccc(-c2nc(-c3ccc(C(F)(F)F)cc3)cs2)cc1 (mixture of isomers) | 101 |
| O=S(=O)(Nc1ccc(CC2CC[C@@H]([C@H](O)c3ccccc3)N2)cc1)c1ccc(-c2nc(-c3ccc(C(F)(F)F)cc3)cs2)cc1 (mixture of isomers) | 104 |
| O=S(=O)(Nc1ccc(CCNC[C@H](O)c2ccccc2)cc1)c1ccc(-c2nc(-c3ccc(C(F)(F)F)cc3)cs2)cc1 | 95 |
| O=S(=O)(Nc1ccc(CC2CC[C@H]([C@@H](O)c3ccccc3)N2)cc1)c1ccc(-c2nc(-c3ccc(C(F)(F)F)cc3)cs2)cc1 (mixture of isomers) | 104 |
| Nc1nc(CC(=O)Nc2ccc(C[C@@H]3CC[C@H]([C@H](O)c4ccccc4)N3)cc2)cs1 | 99 |

Ref: ChEMBL document CHEMBL1681775
